- Measurement target: T1, human CD3 on CD3+ Jurkat cells (human, UniProt P07766 23-207)
- T1 construct: whole, on cells; Native CD3 complex on cells; the other CD3 chains are not specified for this assay; also called Human CD3+ Jurkat
- T1 sequence (P07766 23-207): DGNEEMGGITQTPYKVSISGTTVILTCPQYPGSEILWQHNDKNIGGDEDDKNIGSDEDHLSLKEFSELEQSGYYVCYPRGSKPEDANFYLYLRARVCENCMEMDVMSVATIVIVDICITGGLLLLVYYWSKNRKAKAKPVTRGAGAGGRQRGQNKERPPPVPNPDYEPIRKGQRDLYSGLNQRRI
- Measurement description: flow cytometry, 100 nM IgG on CD3+ Jurkat cells, pH 7.4
MFI pH 7.4 by entry:
// units = MFI; emit number, no label

Binder	Numeric result
SAD10318_P01_D03 (ADI-48588) (antibody, V domains shown, IgG; also called Ab58) VH: QVQLVQSGAEVKKPGASVKVSCKASGFNIKDYYMHWVRQAPGQRLEWMGWIDLENANTIYDAKFQGRVTITRDTSASTAYMELSSLRSEDTAVYYCARDHYGHYFYDVWGQGTLVTVSS VL: DIVMTQSPDSLAVSLGERATINCKSSQSLLNAHTGHNYLAWYQQKPGQPPKLLIYWASTRESGVPDRFSGSGSGTDFTLTISSLQAEDVAVYYCKQSHSHRTFGGGTKVEIK	59
SAD10319_P04_E12 (ADI-48642) (antibody, V domains shown, IgG; also called Ab43) VH: QVQLVQSGAEVKKPGASVKVSCKASGYTFTSYPMHWVRQAPGQRLEWMGWIDAGTGLTTYSQKFQGRVTITRDTSASTAYMELSSLRSEDTAVYYCARDHYHRYFYDMWGQGTLVTVSS VL: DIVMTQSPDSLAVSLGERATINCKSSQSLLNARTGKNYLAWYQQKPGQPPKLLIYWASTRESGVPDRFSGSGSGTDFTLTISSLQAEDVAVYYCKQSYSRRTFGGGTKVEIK	55
SAD10318_P01_G01 (ADI-48579) (antibody, V domains shown, IgG; also called Ab215) VH: QVQLVQSGAEVKKPGASVKVSCKASGFNIKDYYMHWVRQAPGQRLEWMGWIDLENANTIYDAKFQGRVTITRDTSASTAYMELSSLRSEDTAVYYCARDAHGHYFYDVWGQGTLVTVSS VL: DIVMTQSPDSLAVSLGERATINCKSSQSLLHAHTGKNYLAWYQQKPGQPPKLLIYWASTRESGVPDRFSGSGSGTDFTLTISSLQAEDVAVYYCKQSHSHRTFGGGTKVEIK	306
SAD10319_P03_B09 (ADI-48639) (antibody, V domains shown, IgG; also called Ab24) VH: QVQLVQSGAEVKKPGASVKVSCKASGYTFTEYDMHWVRQAPGQRLEWMGWIDAGTGATVYSQKFQGRVTITRDTSASTAYMELSSLRSEDTAVYYCARDAYGRYFYDHWGQGTLVTVSS VL: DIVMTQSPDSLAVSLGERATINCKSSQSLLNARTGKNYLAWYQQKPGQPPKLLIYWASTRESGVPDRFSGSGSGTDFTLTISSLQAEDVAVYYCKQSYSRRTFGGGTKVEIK	55

Could you now consider this next binder?
Specify measured MFI pH 7.4 for SAD10318_P01_H01 (ADI-48580) (antibody, V domains shown, IgG; also called Ab226) VH: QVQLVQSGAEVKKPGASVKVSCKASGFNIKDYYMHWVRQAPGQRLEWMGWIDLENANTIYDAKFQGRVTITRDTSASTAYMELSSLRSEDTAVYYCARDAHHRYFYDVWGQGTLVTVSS VL: DIVMTQSPDSLAVSLGERATINCKSSQSLLNAHTGKNHLAWYQQKPGQPPKLLIYWASTRESGVPDRFSGSGSGTDFTLTISSLQAEDVAVYYCKQSYHHRTFGGGTKVEIK .
41
